biological target: NAMPT (human, recombinant, C-terminally His-tagged) (Homo sapiens, UniProt P43490); experiment: Time-Resolved Fluorescence Resonance Energy Transfer (TR-FRET) Binding Assay of NAMPT; conditions: absence of substrates; 6.8 nM NAMPT, 200 nM probe, equilibrated 3 hours
Sequence (P43490 whole entry): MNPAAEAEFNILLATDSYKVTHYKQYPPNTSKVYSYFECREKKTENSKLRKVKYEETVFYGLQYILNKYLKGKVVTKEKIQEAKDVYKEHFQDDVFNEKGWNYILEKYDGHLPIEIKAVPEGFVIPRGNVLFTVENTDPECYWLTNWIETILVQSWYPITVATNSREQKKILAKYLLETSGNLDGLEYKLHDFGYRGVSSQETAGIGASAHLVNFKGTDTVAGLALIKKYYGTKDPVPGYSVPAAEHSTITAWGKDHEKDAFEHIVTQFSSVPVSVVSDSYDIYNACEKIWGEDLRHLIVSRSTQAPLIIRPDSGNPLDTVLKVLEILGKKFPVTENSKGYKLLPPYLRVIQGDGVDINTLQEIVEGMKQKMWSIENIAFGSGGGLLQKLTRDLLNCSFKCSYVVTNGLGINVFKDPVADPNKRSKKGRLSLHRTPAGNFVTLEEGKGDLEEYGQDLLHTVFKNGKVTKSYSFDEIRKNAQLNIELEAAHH
Field: log10 of IC50. Provide a value for each of the molecules that follow.
Quick note: numbers are log10 of IC50, with µM as the unit.

Query "CC(C)CNC(=O)N(Cc1ccc(F)cc1)c1ncc(C(=O)NCCCn2ccnc2)s1" yields log10 of IC50 of 0.27

According to the records, this molecule "COCCC(=O)N(Cc1c(F)cccc1F)c1ncc(C(=O)NCCCn2ccnc2)s1" displays log10 of IC50 of 0.57

// log10 of IC50 value for "COCCNC(=O)N(CCc1ccc(Cl)cn1)c1ncc(C(=O)NCCCn2ccnc2)s1" : 0.83

According to the records, this molecule "COCCC(=O)N(Cc1ccc(Cl)cc1)c1ncc(C(=O)NCCCn2ccnc2)s1" displays log10 of IC50 of 0.30

"CNC(=O)CN(Cc1ccc(F)cc1)c1ncc(C(=O)NCCCn2ccnc2)s1" has a reported log10 of IC50 of 0.68

Per the records, this molecule ( "CC1CCN(CC(=O)N(Cc2ccc(F)cc2)c2ncc(C(=O)NCCCn3ccnc3)s2)CC1" ) has log10 of IC50 equal to 0.85

Reported log10 of IC50 ( "COCCC(=O)N(CCN1CCOC1=O)c1ncc(C(=O)NCCCn2ccnc2)s1" ) = 0.42

The molecule listed as "COCCN(C(=O)CCc1cccnc1)c1ncc(C(=O)NCCCn2ccnc2)s1" shows log10 of IC50 equal to 0.47

log10 of IC50 reported for this molecule "COCCC(=O)N(CCc1ccc(Cl)cc1)c1ncc(C(=O)NCCCn2ccnc2)s1" : -0.15

For this molecule ( "CC(C)CCNC(=O)N(Cc1ccc(F)cc1)c1ncc(C(=O)NCCCn2ccnc2)s1" ), measured log10 of IC50 is 0.35

For record "COCCN(C(=O)Cc1ccccn1)c1ncc(C(=O)NCCCn2ccnc2)s1" the listed log10 of IC50 is 0.99

"COCC(COC)NC(=O)N(Cc1ccc(F)cc1)c1ncc(C(=O)NCCCn2ccnc2)s1" yielded log10 of IC50 of 0.77

The molecule COCCC(=O)N(CC1CCCO1)c1ncc(C(=O)NCCCn2ccnc2)s1 (stereo not drawn) showed log10 of IC50 equal to 0.84

The molecule "COCCC(=O)N(CCC1OCCO1)c1ncc(C(=O)NCCCn2ccnc2)s1" showed log10 of IC50 equal to 0.89

Form field log10 of IC50, entry N#Cc1ccc(CN(C(=O)CC2CCOC2)c2ncc(C(=O)NCCCn3ccnc3)s2)cc1 (stereo not drawn) : 0.28

Briefly, log10 of IC50 measured for "COCC(=O)N(Cc1ccc(F)cc1)c1ncc(C(=O)NCCCn2ccnc2)s1" : 0.62

Reported log10 of IC50 for "CC(C)(CO)CNC(=O)N(Cc1ccc(C#N)cc1)c1ncc(C(=O)NCCCn2ccnc2)s1" was 0.50

Noted for "COCCN(C(=O)Cc1ccc2ccccc2c1)c1ncc(C(=O)NCCCn2ccnc2)s1" : its log10 of IC50 reads -0.20

# log10 of IC50 (molecule: "CC(C)OCCCNC(=O)N(Cc1ccc(C#N)cc1)c1ncc(C(=O)NCCCn2ccnc2)s1" ) is 0.62

For record "CC(C)CCN(C(=O)[C@@H](C)Oc1ccccc1)c1ncc(C(=O)NCCCn2ccnc2)s1" the listed log10 of IC50 is -1.23

For reference, reported log10 of IC50 for "COCCC(=O)N(Cc1ccc(C)cn1)c1ncc(C(=O)NCCCn2ccnc2)s1" stands at 0.10

log10 of IC50 reported for this molecule COC(C)CNC(=O)N(Cc1ccc(C#N)cc1)c1ncc(C(=O)NCCCn2ccnc2)s1 (stereo not drawn) : 0.55

Data point: O=C(NCCCn1ccnc1)c1cnc(N(CCc2ccc(Cl)cn2)C(=O)C2CCOC2)s1 (stereo not drawn) ; log10 of IC50 = 0.46

Reported log10 of IC50 of "O=C(NCCCn1ccnc1)c1cnc(N(Cc2ccc(F)cc2)C(=O)c2ccc(F)cc2)s1" : 0.24

The reported measurements were obtained from patent US9334264B2.
